Molecular target: Carbonic anhydrase 4 (Homo sapiens)
Sequence (P22748 whole entry): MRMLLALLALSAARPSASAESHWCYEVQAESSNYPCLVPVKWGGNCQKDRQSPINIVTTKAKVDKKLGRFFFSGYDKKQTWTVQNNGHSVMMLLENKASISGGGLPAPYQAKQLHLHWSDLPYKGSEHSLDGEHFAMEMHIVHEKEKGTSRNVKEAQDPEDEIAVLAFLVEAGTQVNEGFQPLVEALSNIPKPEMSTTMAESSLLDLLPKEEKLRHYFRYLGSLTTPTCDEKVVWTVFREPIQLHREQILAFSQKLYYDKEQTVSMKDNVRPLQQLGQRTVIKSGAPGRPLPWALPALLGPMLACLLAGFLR
Test: Inhibition of human recombinant carbonic anhydrase 4 preincubated for 15 mins at room temperature/6 hrs at 4 deg C by stopped-flow CO2 hydration assay

compound: O=C(/C=C/c1ccc(O)c(O)c1/C=C/c1ccc(O)c(O)c1)O[C@H](Cc1ccc(O)c(O)c1)C(=O)O [SALVIANOLIC ACID A]
measurement target: Carbonic anhydrase 4 (Homo sapiens)
qual: =
Ki (µM): 0.0666
//
compound: O=c1c(-c2ccc(O)cc2)coc2c([C@@H]3O[C@H](CO)[C@@H](O)[C@H](O)[C@H]3O)c(O)ccc12 [PUERARIN]
measurement target: Carbonic anhydrase 4 (Homo sapiens)
qual: >
Ki (µM): 10
//
compound: C[C@@H]1O[C@@H](Oc2c(-c3ccc(O)c(O)c3)oc3cc(O)cc(O)c3c2=O)[C@H](O)[C@H](O)[C@H]1O [QUERCETIN-3-O-RHAMNOSIDE]
measurement target: Carbonic anhydrase 4 (Homo sapiens)
qual: =
Ki (µM): 0.0673
